- protocol: PSAC antagonists in infected red cells, primary screen, cell-based, P. falciparum Indochina, OD700, 18 h (AID 1157)
- conditions-used: P. falciparum Indochina infected erythrocytes, osmotic lysis OD700, 18 h; higher = more signal, called active from +8 up or from −8 down
assay-readout: z-score
# respond with the number and nothing more

query: Look up z-score of COCCOC(=O)N1C(=O)[C@@]2(c3cc(C#CCC(C(=O)OC)C(=O)OC)ccc31)[C@H](c1ccccc1OCCO)N1[C@H](c3ccccc3)[C@H](c3ccccc3)OC(=O)[C@H]1[C@@H]2C(=O)N1CCc2cc(OC)c(OC)cc2C1 and report it.
result: -0.466

Attention now turns to another entry.
query: Look up z-score of [N-]=[N+]=Nc1ccccc1[C@@H]1OC(c2ccc(OCCCO)cc2)=N[C@]1(CCS(=O)(=O)c1ccccc1)C(=O)N1CCOCC1 and report it.
result: 6.38
